- assayed-system: Potassium voltage-gated channel subfamily KQT member 1 (Homo sapiens) (UniProt P51787)
- Sequence (P51787 whole entry, looked up): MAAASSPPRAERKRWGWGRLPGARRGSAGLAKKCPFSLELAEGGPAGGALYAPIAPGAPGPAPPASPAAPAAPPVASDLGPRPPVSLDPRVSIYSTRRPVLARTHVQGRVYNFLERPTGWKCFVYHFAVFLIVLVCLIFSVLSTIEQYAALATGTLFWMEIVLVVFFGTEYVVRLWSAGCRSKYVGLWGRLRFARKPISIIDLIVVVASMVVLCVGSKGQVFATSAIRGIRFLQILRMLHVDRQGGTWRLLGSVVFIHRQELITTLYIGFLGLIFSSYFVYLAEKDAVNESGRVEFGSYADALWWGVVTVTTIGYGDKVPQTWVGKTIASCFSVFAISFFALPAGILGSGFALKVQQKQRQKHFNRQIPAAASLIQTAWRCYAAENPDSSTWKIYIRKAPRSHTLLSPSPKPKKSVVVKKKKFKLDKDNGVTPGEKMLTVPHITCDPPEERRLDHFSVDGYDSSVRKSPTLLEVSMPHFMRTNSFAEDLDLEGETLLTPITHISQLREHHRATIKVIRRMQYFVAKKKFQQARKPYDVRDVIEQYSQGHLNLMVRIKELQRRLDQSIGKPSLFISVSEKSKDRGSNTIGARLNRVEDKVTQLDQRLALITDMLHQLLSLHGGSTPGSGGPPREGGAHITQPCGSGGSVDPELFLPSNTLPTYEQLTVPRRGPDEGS
- experiment-description: KCNQ1 potassium channel potentiators, confirmation, FluxOR thallium flux, CHO cells, duplicates (AID 493007)
- measurement-setup: KCNQ1 cell line, FluxOR thallium flux fluorescence, at 10 µM, % of reference activator effect, buffer zero
Active and inactive are the calls of the source.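 How the source made its calls: active means potentiation averaged over duplicate wells exceeding buffer-only control mean by more than 3 SD; inactive means the rest.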
Labels: true (1) = active, false (0) = inactive

CCc1ccc(OCC(=O)Nc2ccc(S(=O)(=O)N3CCOCC3)cc2)cc1 ... false (0)
CCOc1ccc(NC(=O)Cn2nnc(-c3ccccc3NC(=O)c3cccs3)n2)cc1 ... false (0)
CC(C)NC(=O)C1CCN(c2ccc(S(=O)(=O)N3CCOCC3)cc2Cl)CC1 ... false (0)
O=[N+]([O-])c1ccc(C(O)C(CO)NC(=S)Nc2ccccc2)cc1 (stereo unspecified) ... false (0)
O=C(NC(=S)NC1CCCCC1)c1ccc(F)cc1 ... false (0)
O=C(NC(=S)Nc1ccccc1N1CCCC1)c1ccccc1Br ... true (1)
Clc1ccc(-c2csc(N3CCc4ccccc4C3)n2)cc1 ... false (0)
S=c1[nH]nc(C2CCCCC2)n1/N=C/c1cccc(Cl)c1Cl ... true (1)
O=c1cc(-c2c(F)c(F)c(F)c(F)c2F)oc2ccccc12 ... false (0)
Cc1cccc(NC(=O)Nc2ccc(OCc3ccccc3)cc2)n1 ... false (0)
Cc1ccc2cc3cc(C(=O)NC4CC4)oc3nc2c1 ... false (0)
